Source: PubChem BioAssay (NCI)

# System: HCT-15 colon
# protocol: NCI tumour cell line growth inhibition, 48 h
Recorded TGI by entry

Recorded results for 5 compounds are shown here.
[
  {
    "compound": "Cc1ccc(S(=O)(=O)N(CC(O)COc2ccccc2)c2c(F)c(F)cc(F)c2F)cc1 (stereo not drawn)",
    "TGI": "52 µM"
  },
  {
    "compound": "O=C(NN1C(=O)C(Cl)C1c1cccc(O)c1)c1ccccc1O (stereo not drawn)",
    "TGI": "> 100 µM"
  },
  {
    "compound": "CN1CCN(CCCOc2cccc3nc(Nc4cc(Cl)cc(Cl)c4)ccc23)CC1",
    "TGI": "2.83 µM"
  },
  {
    "compound": "CC(=O)Nc1ccc(NC(=O)CC(=O)Nc2ccc(NC(C)=O)cc2)cc1",
    "TGI": "61.9 µM"
  },
  {
    "compound": "O=C1OC(CC(=O)c2ccc(F)cc2)C(Cl)=C1Cl (stereo not drawn)",
    "TGI": "35.5 µM"
  }
]

Which TGI value belongs to CC(C)OP(=O)(OC(C)C)C(=NCCO)NNc1ccc([N+](=O)[O-])cc1 ?
> 100 µM

Which value of TGI has been reported for O=C1CC(c2ccc(Cl)cc2)C2(C(=O)NC(=S)NC2=O)C(c2ccc(Cl)cc2)C1 (stereo not drawn) in the records?
52.8 µM

Given the compound OCC1NC(COC2OC(CO)C(O)C(O)C2O)C(O)C(O)C1O (stereo not drawn) , what is its reported TGI?
> 100 µM

---

# System: K-562 leukemia
# protocol: NCI tumour cell line growth inhibition, 48 h
Collected TGI values appear next to each entry.

[
  {
    "compound": "O=C(CCc1nc(=S)[nH][nH]1)Nc1cc(Cl)ccc1Cl",
    "observed result": "> 100 µM"
  },
  {
    "compound": "O=C(Nc1ccccc1)c1cc2ccccc2c(N=Nc2cccc([N+](=O)[O-])c2)c1O",
    "observed result": "> 100 µM"
  },
  {
    "compound": "C#CCN(N=O)C(=O)NC(CCCCNC(=O)OCc1ccccc1)C(=O)OCc1ccccc1 (configuration not stated)",
    "observed result": "50.5 µM"
  },
  {
    "compound": "CCN(C(=O)N1CCN(c2cc3c(cc2F)c(=O)c(C(=O)O)cn3C2CC2)CC1)c1nc(-c2ccccc2)cs1",
    "observed result": "> 100 µM"
  }
]

Shift focus to the following entry.
Form field: reported TGI of Cc1ccc2nc(N)[nH]c(=O)c2c1Sc1ccncc1
> 31.6 µM

---

# Tested on: SK-MEL-5 melanoma
# protocol: NCI tumour cell line growth inhibition, 48 h
parameter: TGI

Field: example entries. Status: answers known.
[
  {
    "compound": "Nc1nc(=O)n(C2CC(O)C(CO)O2)cc1F (stereo not given)",
    "TGI": "> 100 µM"
  },
  {
    "compound": "CN1C(=O)c2ccccc2C(O)(c2ccccc2)C1(O)c1ccccc1 (stereo not given)",
    "TGI": "> 100 µM"
  },
  {
    "compound": "CCOC(=O)C1(CC(=O)O)CCCC1=O (stereo not given)",
    "TGI": "> 100 µM"
  },
  {
    "compound": "O=C(NCCCCCCCCCCCCNC(=O)c1cnc2ccccc2n1)c1cnc2ccccc2n1",
    "TGI": "> 100 µM"
  }
]

Please find the next compound below.
Recall the recorded TGI for C[C@@H](Nc1nc(N[C@H](C)C(F)(F)F)nc(-c2cccc(Cl)n2)n1)C(F)(F)F with SK-MEL-5 melanoma and state it.
> 100 µM
